Where do the numbers come from? From ChEMBL document CHEMBL3885861.

Species on record: Rattus norvegicus
Test: Open TG-GATES - Regimen: Daily Repeat
Type: toxicity, organism-based, Sprague-Dawley
Design: regimen Daily Repeat, gender Male, age 6 weeks
Settings: in vivo, po, 0 mg/kg, […], tissue Blood, route gavage, dose level Control, time 14 day
observable: MCH (pg)

- CC(C)NNC(=O)c1ccncc1 [IPRONIAZID]: 20
- COC(=O)C1=C(C)NC(C)=C(C(=O)OC)C1c1ccccc1[N+](=O)[O-] [NIFEDIPINE]: 20.6
- CCCc1cc(=O)[nH]c(=S)[nH]1 [PROPYLTHIOURACIL]: 21
- CCOc1ccc(NC(C)=O)cc1 [PHENACETIN]: 19.9
- CN1C(=O)CCS(=O)(=O)C1c1ccc(Cl)cc1 (stereo not drawn) [CHLORMEZANONE]: 20.7
- CN(C)CCC(c1ccc(Cl)cc1)c1ccccn1 (stereo not drawn) [CHLORPHENIRAMINE]: 20.4
- Nc1c2c(nc3ccccc13)CCCC2 [TACRINE]: 21.2
- CNC(=C[N+](=O)[O-])NCCSCc1ccc(CN(C)C)o1 [RANITIDINE]: 20.6
- NC1=NC(=O)C(c2ccccc2)O1 (stereo not drawn) [PEMOLINE]: 21.3
- CN/C(=N/CCSCc1nc[nH]c1C)NC#N [CIMETIDINE]: 20
- Cc1nnc2n1-c1ccc(Cl)cc1C(c1ccccc1Cl)=NC2 [TRIAZOLAM]: 19.9
- Brc1ccccc1 [BROMOBENZENE]: 20.8
- O=C(OC[C@H]1O[C@@H](OC(=O)c2cc(O)c(O)c(OC(=O)c3cc(O)c(O)c(O)c3)c2)[C@H](OC(=O)c2cc(O)c(O)c(OC(=O)c3cc(O)c(O)c(O)c3)c2)[C@@H](OC(=O)c2cc(O)c(O)c(OC(=O)c3cc(O)c(O)c(O)c3)c2)[C@@H]1OC(=O)c1cc(O)c(O)c(OC(=O)c2cc(O)c(O)c(O)c2)c1)c1cc(O)c(O)c(OC(=O)c2cc(O)c(O)c(O)c2)c1 [TANNIC ACID]: 20.7

* * *

Species: Rattus norvegicus
Assay: Open TG-GATES - Regimen: Single
Assay type: toxicity, organism-based, Sprague-Dawley
Parameters: regimen Single, gender Male, age 6 weeks
Conditions: in vivo, po, 100 mg/kg, 24 h, tissue Plasma, route gavage, dose level Low
The entries below are paired with their reported TG.
observable: TG (mg/dL)

- CNC(=C[N+](=O)[O-])NCCSCc1ccc(CN(C)C)o1: 90
- Cc1nnc2n1-c1ccc(Cl)cc1C(c1ccccc1Cl)=NC2: 83.8
- COC(=O)C1=C(C)NC(C)=C(C(=O)OC)C1c1ccccc1[N+](=O)[O-]: 87.8
- CN/C(=N/CCSCc1nc[nH]c1C)NC#N: 98.8
- O=C(OC[C@H]1O[C@@H](OC(=O)c2cc(O)c(O)c(OC(=O)c3cc(O)c(O)c(O)c3)c2)[C@H](OC(=O)c2cc(O)c(O)c(OC(=O)c3cc(O)c(O)c(O)c3)c2)[C@@H](OC(=O)c2cc(O)c(O)c(OC(=O)c3cc(O)c(O)c(O)c3)c2)[C@@H]1OC(=O)c1cc(O)c(O)c(OC(=O)c2cc(O)c(O)c(O)c2)c1)c1cc(O)c(O)c(OC(=O)c2cc(O)c(O)c(O)c2)c1: 101.6

* * *

// reported Cl for each item listed
Organism: Rattus norvegicus
Experiment: Open TG-GATES - Regimen: Daily Repeat
Format: toxicity, organism-based, Sprague-Dawley
Parameters: regimen Daily Repeat, gender Male, age 6 weeks
Conditions: in vivo, po, 1000 mg/kg, […], tissue Plasma, route gavage, dose level High, time 28 day
observable: Cl (meq/L)

- CCOc1ccc(NC(C)=O)cc1 [PHENACETIN]: 102.8
- CN/C(=N/CCSCc1nc[nH]c1C)NC#N [CIMETIDINE]: 101
- O=C(OC[C@H]1O[C@@H](OC(=O)c2cc(O)c(O)c(OC(=O)c3cc(O)c(O)c(O)c3)c2)[C@H](OC(=O)c2cc(O)c(O)c(OC(=O)c3cc(O)c(O)c(O)c3)c2)[C@@H](OC(=O)c2cc(O)c(O)c(OC(=O)c3cc(O)c(O)c(O)c3)c2)[C@@H]1OC(=O)c1cc(O)c(O)c(OC(=O)c2cc(O)c(O)c(O)c2)c1)c1cc(O)c(O)c(OC(=O)c2cc(O)c(O)c(O)c2)c1 [TANNIC ACID]: 105.8
- COC(=O)C1=C(C)NC(C)=C(C(=O)OC)C1c1ccccc1[N+](=O)[O-] [NIFEDIPINE]: 106.6
- Cc1nnc2n1-c1ccc(Cl)cc1C(c1ccccc1Cl)=NC2 [TRIAZOLAM]: 105.2
- CNC(=C[N+](=O)[O-])NCCSCc1ccc(CN(C)C)o1 [RANITIDINE]: 102.2

* * *

Let's look at some compounds and their measured CRE.
Species: Rattus norvegicus
Assay: Open TG-GATES - Regimen: Single
Format: toxicity, organism-based, Sprague-Dawley
Parameters: regimen Single, gender Male, age 6 weeks
Conditions: in vivo, po, 100 mg/kg, 24 h, tissue Plasma, route gavage, dose level Low
observable: CRE (mg/dL)

• CN/C(=N/CCSCc1nc[nH]c1C)NC#N [CIMETIDINE] = 0.4
• COC(=O)C1=C(C)NC(C)=C(C(=O)OC)C1c1ccccc1[N+](=O)[O-] [NIFEDIPINE] = 0.2
• CNC(=C[N+](=O)[O-])NCCSCc1ccc(CN(C)C)o1 [RANITIDINE] = 0.4
• O=C(OC[C@H]1O[C@@H](OC(=O)c2cc(O)c(O)c(OC(=O)c3cc(O)c(O)c(O)c3)c2)[C@H](OC(=O)c2cc(O)c(O)c(OC(=O)c3cc(O)c(O)c(O)c3)c2)[C@@H](OC(=O)c2cc(O)c(O)c(OC(=O)c3cc(O)c(O)c(O)c3)c2)[C@@H]1OC(=O)c1cc(O)c(O)c(OC(=O)c2cc(O)c(O)c(O)c2)c1)c1cc(O)c(O)c(OC(=O)c2cc(O)c(O)c(O)c2)c1 [TANNIC ACID] = 0.5
• Cc1nnc2n1-c1ccc(Cl)cc1C(c1ccccc1Cl)=NC2 [TRIAZOLAM] = 0.2

* * *

Organism: Rattus norvegicus
Experiment: Open TG-GATES - Regimen: Daily Repeat
Assay type: toxicity, organism-based, Sprague-Dawley
Set-up: regimen Daily Repeat, gender Male, age 6 weeks
Settings: in vivo, po, 0 mg/kg, […], tissue Kidney, route gavage, dose level Control, time 7 day
observable: KIDNEY_R

* Cc1nnc2n1-c1ccc(Cl)cc1C(c1ccccc1Cl)=NC2 | 1.1 g
* Nc1c2c(nc3ccccc13)CCCC2 | 1.1 g
* NC1=NC(=O)C(c2ccccc2)O1 (stereo not drawn) | 1.1 g
* CC(C)NNC(=O)c1ccncc1 | 1 g
* CN/C(=N/CCSCc1nc[nH]c1C)NC#N | 1.1 g
* CNC(=C[N+](=O)[O-])NCCSCc1ccc(CN(C)C)o1 | 1.1 g
* CN1C(=O)CCS(=O)(=O)C1c1ccc(Cl)cc1 (stereo not drawn) | 1 g
* CCCc1cc(=O)[nH]c(=S)[nH]1 | 1.1 g
* Brc1ccccc1 | 1 g
* COC(=O)C1=C(C)NC(C)=C(C(=O)OC)C1c1ccccc1[N+](=O)[O-] | 1 g
* CCOc1ccc(NC(C)=O)cc1 | 1.1 g
* CN(C)CCC(c1ccc(Cl)cc1)c1ccccn1 (stereo not drawn) | 1 g
* O=C(OC[C@H]1O[C@@H](OC(=O)c2cc(O)c(O)c(OC(=O)c3cc(O)c(O)c(O)c3)c2)[C@H](OC(=O)c2cc(O)c(O)c(OC(=O)c3cc(O)c(O)c(O)c3)c2)[C@@H](OC(=O)c2cc(O)c(O)c(OC(=O)c3cc(O)c(O)c(O)c3)c2)[C@@H]1OC(=O)c1cc(O)c(O)c(OC(=O)c2cc(O)c(O)c(O)c2)c1)c1cc(O)c(O)c(OC(=O)c2cc(O)c(O)c(O)c2)c1 | 1.1 g

* * *

Species on record: Rattus norvegicus
Assay: Open TG-GATES - Regimen: Daily Repeat
Format: toxicity, organism-based, Sprague-Dawley
Set-up: regimen Daily Repeat, gender Male, age 6 weeks
Settings: in vivo, po, 0 mg/kg, […], tissue Blood, route gavage, dose level Control, time 28 day
observable: Eos (%)

* CCOc1ccc(NC(C)=O)cc1 | 1.4
* O=C(OC[C@H]1O[C@@H](OC(=O)c2cc(O)c(O)c(OC(=O)c3cc(O)c(O)c(O)c3)c2)[C@H](OC(=O)c2cc(O)c(O)c(OC(=O)c3cc(O)c(O)c(O)c3)c2)[C@@H](OC(=O)c2cc(O)c(O)c(OC(=O)c3cc(O)c(O)c(O)c3)c2)[C@@H]1OC(=O)c1cc(O)c(O)c(OC(=O)c2cc(O)c(O)c(O)c2)c1)c1cc(O)c(O)c(OC(=O)c2cc(O)c(O)c(O)c2)c1 | 1
* Nc1c2c(nc3ccccc13)CCCC2 | 1
* CN(C)CCC(c1ccc(Cl)cc1)c1ccccn1 (stereo not drawn) | 1.2
* CN1C(=O)CCS(=O)(=O)C1c1ccc(Cl)cc1 (stereo not drawn) | 1
* CN/C(=N/CCSCc1nc[nH]c1C)NC#N | 1.2
* Cc1nnc2n1-c1ccc(Cl)cc1C(c1ccccc1Cl)=NC2 | 1.4
* Brc1ccccc1 | 1.6
